Target: Adenosine receptor A3 (Homo sapiens, UniProt P0DMS8); also: assay procedure not described here
Sequence (P0DMS8 whole entry): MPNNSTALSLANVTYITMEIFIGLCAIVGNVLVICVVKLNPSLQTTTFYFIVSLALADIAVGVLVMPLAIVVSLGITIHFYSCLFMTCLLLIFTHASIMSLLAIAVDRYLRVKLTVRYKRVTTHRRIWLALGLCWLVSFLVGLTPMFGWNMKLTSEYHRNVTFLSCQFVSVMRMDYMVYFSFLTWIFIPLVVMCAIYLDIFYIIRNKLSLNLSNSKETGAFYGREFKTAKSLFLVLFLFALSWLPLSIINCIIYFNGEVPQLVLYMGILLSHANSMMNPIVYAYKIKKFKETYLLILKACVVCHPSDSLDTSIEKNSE
Attribute measured: AC50 (µM)
One number for each entry, in µM.

INSERT INTO results (smiles, attribute_measured, reading) VALUES
  ('Nc1nc2ccc(OC(F)(F)F)cc2s1', 'AC50', 29.2);

As a next step, examine the compound that follows.
Write down AC50 measured for item O=C1c2ccccc2C(=O)C1C(=O)C(c1ccccc1)c1ccccc1
0.716
